molecular target: GRK5 (Homo sapiens); construct: The GRK5 ORF was initially excised by restriction digestion of the full length clone pGRK5 using NaeI and SmaI; made in house; host or cells: Sf9 insect cells (baculovirus, pBacPAK1); assay: GRK5 autophosphorylation; assay type: biochemical
Sequence (P34947 whole entry): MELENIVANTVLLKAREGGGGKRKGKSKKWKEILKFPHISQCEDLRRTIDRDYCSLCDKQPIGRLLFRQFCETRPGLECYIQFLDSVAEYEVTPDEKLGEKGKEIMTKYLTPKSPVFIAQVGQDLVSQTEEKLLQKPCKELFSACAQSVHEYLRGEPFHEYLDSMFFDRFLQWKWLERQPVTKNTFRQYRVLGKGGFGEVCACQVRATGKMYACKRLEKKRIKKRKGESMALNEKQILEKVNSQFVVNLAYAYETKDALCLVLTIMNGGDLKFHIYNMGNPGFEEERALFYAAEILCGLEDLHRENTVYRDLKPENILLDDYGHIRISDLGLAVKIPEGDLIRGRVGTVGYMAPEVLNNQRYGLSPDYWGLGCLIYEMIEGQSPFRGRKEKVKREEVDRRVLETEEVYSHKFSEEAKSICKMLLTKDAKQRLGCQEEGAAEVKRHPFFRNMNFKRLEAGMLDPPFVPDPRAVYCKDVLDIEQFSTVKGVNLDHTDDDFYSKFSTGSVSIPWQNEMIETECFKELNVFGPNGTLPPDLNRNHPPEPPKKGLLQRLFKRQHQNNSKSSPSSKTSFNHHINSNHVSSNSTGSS
pIC50: −log10 of the molar value.
MEASURED QUANTITY: pIC50

1) Cl [NaCl]	~1.15

----------
biological target: GRK5 (Homo sapiens); construct: The GRK5 ORF was initially excised by restriction digestion of the full length clone pGRK5 using NaeI and SmaI; made in house; host or cells: Sf9 insect cells (baculovirus, pBacPAK1); assay: GRK5 phosphorylation of rhodopsin (receptor phosphorylation); type: biochemical; details: purified GRK5; read-out: IC50 for inhibiting GRK5
MEASURED QUANTITY: IC50

1) CC1CNCCN1S(=O)(=O)c1cccc2cnccc12 (stereo not shown)	~170 µM
